- System: HAP1 MTAP-intact cell line
- assay name: SDMA in-cell western assay, HAP1 MTAP-intact
- Assay type: cell-based
- measurement parameters: Homo sapiens, HAP1, SDMA in-cell western, HAP1 MTAP-intact; read-out: MTAP HAP1 intact IC50
Catalogue of compounds with associated IC50

Consider the worked cases shown below.
compound: C[C@@H]1CC[C@H](c2ccccc2)N(C(=O)C(=O)Nc2cncc(C(N)=O)c2)[C@@H]1C (racemic)
IC50: > 1000 nM
--
compound: NC(=O)c1cncc(NC(=O)C(=O)N2CCC3(CC2)OCC2CC23)c1 (stereo not drawn)
IC50: > 1000 nM
--
compound: Cc1cncc(NC(=O)C(=O)N2C[C@@H](C)CC[C@H]2c2cccc(F)c2)c1 (single isomer, unassigned)
IC50: > 1000 nM
--
compound: C[C@@H]1CC[C@@H](c2ccc3c(c2)C(=O)NC3)N(C(=O)C(=O)Nc2cncc(C(N)=O)c2)C1 (single isomer, unassigned)
IC50: > 1000 nM
--
compound: C[C@H]1CC[C@H](c2ccc3sc(C4CCN(C)CC4)nc3c2)N(C(=O)C(=O)Nc2cncc(C(N)=O)c2)C1 (single isomer, unassigned)
IC50: < 100 nM

Moving on to another compound below.
IC50 measured on COc1ncc(NC(=O)C(=O)N2C[C@@H](C)CC[C@@H]2c2ccc3sc([C@H]4CCN(C)C[C@H]4C)nc3c2)cc1C(N)=O (racemic) = < 100 nM

---

- measurement target: PRMT5 (Homo sapiens)
- Construct: purchased Viva (custom protein)
- Sequence (O14744 whole entry): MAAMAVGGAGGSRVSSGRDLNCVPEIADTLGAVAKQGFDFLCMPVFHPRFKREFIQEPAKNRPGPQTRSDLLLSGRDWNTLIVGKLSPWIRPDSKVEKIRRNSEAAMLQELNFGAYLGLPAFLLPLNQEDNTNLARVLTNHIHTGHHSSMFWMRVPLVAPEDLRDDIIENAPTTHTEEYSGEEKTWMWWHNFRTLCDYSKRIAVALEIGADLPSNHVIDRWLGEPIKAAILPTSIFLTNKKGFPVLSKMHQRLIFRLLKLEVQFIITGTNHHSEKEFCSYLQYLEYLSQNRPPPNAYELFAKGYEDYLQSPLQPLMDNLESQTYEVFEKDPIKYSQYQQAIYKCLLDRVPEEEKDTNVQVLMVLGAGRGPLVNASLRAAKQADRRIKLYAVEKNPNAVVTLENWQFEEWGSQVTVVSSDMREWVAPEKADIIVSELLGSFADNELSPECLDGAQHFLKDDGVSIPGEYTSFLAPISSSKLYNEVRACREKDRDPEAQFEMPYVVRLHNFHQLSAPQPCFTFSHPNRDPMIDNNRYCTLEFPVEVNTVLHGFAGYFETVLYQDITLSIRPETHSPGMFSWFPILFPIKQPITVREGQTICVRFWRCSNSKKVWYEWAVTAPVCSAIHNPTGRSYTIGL
- Sequence (Q9BQA1 whole entry partner): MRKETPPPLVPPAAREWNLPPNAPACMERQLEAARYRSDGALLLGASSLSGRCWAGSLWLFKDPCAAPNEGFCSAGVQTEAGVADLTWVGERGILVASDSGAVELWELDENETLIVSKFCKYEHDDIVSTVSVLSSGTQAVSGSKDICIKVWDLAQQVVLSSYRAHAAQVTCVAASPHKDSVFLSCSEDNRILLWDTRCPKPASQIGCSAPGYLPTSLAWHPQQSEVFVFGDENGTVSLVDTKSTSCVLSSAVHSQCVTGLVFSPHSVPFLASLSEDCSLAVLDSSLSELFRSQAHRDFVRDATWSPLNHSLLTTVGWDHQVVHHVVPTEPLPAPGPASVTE
- assay name: PRMT5 biochemical IC50 assay with no cofactor
- measurement parameters: PRMT5, no cofactor; read-out: No Cofactor/ rel IC50
pIC50: −log10 of the molar value.
Entries annotated with measured pIC50

Before answering, review these 5 worked examples.
compound: COc1ncc(NC(=O)C(=O)N2C[C@@H](C)CC[C@@H]2c2ccc3nn([C@H]4CCN(C)C4)cc3c2)cc1C(N)=O (racemic)
experimental endpoint: pIC50
value: > 7.30
--
compound: CCc1cc(NC(=O)C(=O)N2C[C@@H](C)CC[C@@H]2c2ccc3sc(C4CCN(CC(F)F)CC4)nc3c2)cnc1N
experimental endpoint: pIC50
value: > 7.30
--
compound: COc1ncc(NC(=O)C(=O)N2C[C@@H](C)CC[C@@H]2c2ccc3sc(CCN(C)C)nc3c2)cc1C(N)=O (single isomer, unassigned) [Compound 1378]
experimental endpoint: pIC50
value: > 7.30
--
compound: Cc1cc(NC(=O)C(=O)N2C[C@H](C)CC[C@H]2c2cncnc2)cnc1N (racemic)
experimental endpoint: pIC50
value: < 6.30
--
compound: Cc1cc(NC(=O)C(=O)N2C[C@@H](C)CC[C@@H]2c2ccc3sc(CCN4CCOCC4)nc3c2)cnc1N
experimental endpoint: pIC50
value: > 7.30

Value of measured pIC50 for the entry CO[C@@H]1C[C@@H](c2ccc3scnc3c2)N(C(=O)C(=O)Nc2cnc(N)c(C3CC3)c2)C[C@@H]1C (single isomer, unassigned) : < 6.30

Value of pIC50 reported for the compound C[C@H]1CC[C@H](c2ccc3[nH]ncc3c2)N(C(=O)C(=O)Nc2cnc(N)c(C3CC3)c2)C1 (single isomer, unassigned) is > 7.30
